B1: library; a variant is named by its letters at N, in order (parent)
chain: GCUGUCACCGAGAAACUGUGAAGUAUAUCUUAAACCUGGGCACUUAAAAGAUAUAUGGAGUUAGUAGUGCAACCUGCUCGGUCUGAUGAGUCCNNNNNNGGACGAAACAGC

Variants of: B1
experimental.protocol: FACS-Seq fitted mean relative fluorescence mCherry/BFP with ligand (log10 relative fluorescence); HEK293T; ligand: cyclic di-GMP (c-di-GMP-II aptamer); ligand concentration (+) FACS-Seq: 1 mM; higher = higher reporter protein expression
experimental.conditions: ligand present: yes
FACS-Seq fitted mean (log10) class ranges: low bin = under -0.4, mid bin = from -0.4 up to -0.09, high bin = -0.09 and over

[
  {
    "variant.annotation": "GCUCAU",
    "class.name": "mid bin"
  },
  {
    "variant.annotation": "GUACGC",
    "class.name": "low bin"
  },
  {
    "variant.annotation": "AUUGUA",
    "class.name": "high bin"
  },
  {
    "variant.annotation": "UAUUAA",
    "class.name": "mid bin"
  },
  {
    "variant.annotation": "CUAUCC",
    "class.name": "mid bin"
  },
  {
    "variant.annotation": "AGACGA",
    "class.name": "mid bin"
  },
  {
    "variant.annotation": "AAAGGU",
    "class.name": "low bin"
  },
  {
    "variant.annotation": "CGUGCA",
    "class.name": "high bin"
  }
]

FYI, the data here is from the supplement of paper PMC6757056.
